Recorded growth inhibition, one value per entry.
Assay: NCI Yeast Anticancer Drug Screen. Data for the cln2 rad14 strain (AID 165);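 also: 0% = growth equal to vehicle treated cultures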
Settings: S. cerevisiae cln2 rad14 strain, at 50.0 µM, active compounds read high
The panel holds about 79,000 compounds, 15% with a hit somewhere; the sample as a whole holds those more often.
Expressed in %, but write only the number.

{"columns": ["compound", "observed_value"],
 "data": [
  ["CCCCCCOC(=O)c1ccccc1Cl", -16.9],
  ["CCCCC(=O)c1ccc2ccccc2c1O", -18],
  ["ClC(Cl)=C(Cl)C(Cl)(Cl)Cl", -16.5],
  ["Cc1c2ccccc2c(CN2CC(O)CC2C(=O)O)c2ccccc12 (stereo not given)", 78.5],
  ["COC(=O)CCCc1ccccc1N", -35.8]
]}

Consider the compound shown here: CCOc1ccc(/C=C/c2ccc3ccccc3[n+]2C)cc1OCC What is its recorded growth inhibition?
-14

Consider the compound shown here: Nc1ccc(Cl)cc1Br What is its recorded growth inhibition?
5.5

Consider the compound shown here: COc1ccccc1NC(=O)NCCN1CCCC1 What is its recorded growth inhibition?
-8.9

Consider the compound shown here: O=S1(=O)CS/C(=N/C(=S)N(Cc2ccccc2)Cc2ccccc2)N1c1ccccc1 What is its recorded growth inhibition?
24.8

Consider the compound shown here: CCOC(=O)C1=CC(C)(C(=O)OCC)Nc2c(nc(SC)[nH]c2=O)N1 (stereo not given) What is its recorded growth inhibition?
9.05

---

Assay: NCI Yeast Anticancer Drug Screen. Data for the cln2 rad14 strain (AID 165);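 also: 0% = growth equal to vehicle treated cultures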
Conditions: S. cerevisiae cln2 rad14 strain, at 50.0 µM, active compounds read high
About 79,000 compounds went through this panel and 15% of them were active in at least one assay; those are over-represented in the sample as a whole. The source made the active and inactive calls. Cut-off read from the data, not from the text of the source: active = growth inhibition above about 70%; inactive = the rest.
measurement_name: growth inhibition

Example results:
{"columns": ["smiles_text", "observed_value"],
 "data": [
  ["CCOC(=O)/C(=C/n1c(=S)[nH]c2ccc([N+](=O)[O-])cc21)C(=O)c1ccccc1", "-1.35% (inactive)"],
  ["[CH3][Ga]([CH3])[O]c1ccccc1C=O", "-80.7% (inactive)"]
]}

Consider the molecule shown here: C[C@]12CCC(=O)C=C1CC[C@@H]1[C@@H]2C(=O)C[C@@]2(C)[C@H]1CC[C@]2(O)C(=O)C=O What is its recorded growth inhibition?
16.9% (inactive)

Consider the molecule shown here: CC(=O)c1cc([N+](=O)[O-])c(N)s1 What is its recorded growth inhibition?
5.25% (inactive)

Consider the molecule shown here: NC(=O)N/N=C/c1ccc([N+](=O)[O-])s1 What is its recorded growth inhibition?
-39% (inactive)

---

Recorded growth inhibition, one value per entry.
Experiment: NCI Yeast Anticancer Drug Screen. Data for the sgs1 mgt1 strain (AID 161);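 also: 0% = growth of cultures given vehicle only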
Details: S. cerevisiae sgs1 mgt1 strain, at 50.0 µM, active compounds read high
About 79,000 compounds went through this panel and 15% of them were active in at least one assay; those are over-represented in the sample as a whole.
Expressed in %, but write only the number.

Example results:
{"columns": ["compound", "measurement_name", "observed_value"],
 "data": [
  ["CNc1c(C)cc(C#N)cc1C", "growth inhibition", -10.6],
  ["CC(=O)N(C)c1ccc(N=CN(C)C)cc1", "growth inhibition", -34.3],
  ["COc1cc(-c2oc3c(OC)c(OC)cc(O)c3c(=O)c2OC)ccc1O", "growth inhibition", -8.7],
  ["O=C(O)Cc1c(-c2ccccc2)nc(=S)[nH]c1-c1[nH]c(=S)nc(-c2ccccc2)c1CC(=O)O", "growth inhibition", -17],
  ["COc1c(NC(=O)c2ccc(C(=O)Nc3cccc([N+](=O)[O-])c3OC)cc2)cccc1[N+](=O)[O-]", "growth inhibition", -9],
  ["CCCCN(CCCC)C(=O)C(O)C(=O)N(CCCC)CCCC", "growth inhibition", -4.4],
  ["C/C(O)=C(\\C=N\\C(=S)N=Nc1c(O)[nH]c2ccccc12)C(=O)Nc1ccccc1C", "growth inhibition", 43.4],
  ["Cc1cc2ccccc2c[n+]1CC(=O)CC([O-])(C(F)(F)F)C(F)(F)F", "growth inhibition", -5.65]
]}

Consider the compound shown here: C=CCNC(=S)Nc1cccc(O)c1 What is its recorded growth inhibition?
-11.6

Consider the compound shown here: N#CCCN(CCC#N)S(=O)(=O)c1ccccc1 What is its recorded growth inhibition?
-4.9

Consider the compound shown here: C=C1C(c2ccccc2)C(c2ccccc2)=C(C)C(c2ccccc2)=CN1C(=O)c1ccccc1 (centres undefined) What is its recorded growth inhibition?
-9.2

Consider the compound shown here: COc1ccc(N=N/C(=N/NC(=O)c2ccccc2)c2ccc(N(CCC#N)CCC#N)cc2C)cc1 What is its recorded growth inhibition?
-22.8

Consider the compound shown here: Cc1ccccc1N=CC(C=O)[N+](=O)[O-] (centres undefined) What is its recorded growth inhibition?
0.95

Consider the compound shown here: CCCS(=O)(=O)N/N=C(\C)c1cccs1 What is its recorded growth inhibition?
3.25

Consider the compound shown here: C(=C/c1ccccc1)/CNCCNC/C=C/c1ccccc1 What is its recorded growth inhibition?
40.8

Consider the compound shown here: NNC(=O)C1C2C=CC(C2)C1C(=O)NN (centres undefined) What is its recorded growth inhibition?
-11.7

---

Recorded growth inhibition, one value per entry.
Assay: NCI Yeast Anticancer Drug Screen. Data for the mec2-1 strain (AID 157)
Conditions: S. cerevisiae mec2-1 strain, at 50.0 µM, active compounds read high
This is part of a sample that, as a whole, favours compounds with a hit. Of some 79,000 tested, about 15% had one in any assay.
Expressed in %, but write only the number.

Example results:
{"columns": ["molecule", "quantity_unit", "growth inhibition"],
 "data": [
  ["Cc1cc2c(c3ccccc13)Cc1ccccc1-2", "%", 9.2],
  ["O=C1CC23CC(=O)CC2(C1)c1ccccc1C3=O (stereo unspecified)", "%", -11.8],
  ["O=[N+]([O-])c1ccc(S(=O)(=O)N/N=C/c2cccc3ccccc23)cc1", "%", -1.25]
]}

Consider the molecule shown here: Cc1ccc(N=CC=C2C=CN(O)C=C2)nc1 What is its recorded growth inhibition?
-10.9

Consider the molecule shown here: COc1ccc(CC(C)SC(CC(=O)O)C(=O)O)cc1 (stereo unspecified) What is its recorded growth inhibition?
-1

Consider the molecule shown here: CC(CCC(=O)O)[C@H]1CCC2[C@@H]3C(=O)C[C@@H]4CC(O)CC[C@]4(C)C3CC[C@@]21C (stereo partly specified) What is its recorded growth inhibition?
18.1

Consider the molecule shown here: CCOC(=O)C(F)(F)C(F)(F)C(F)(F)F What is its recorded growth inhibition?
-16.4

Consider the molecule shown here: COc1ccccc1NC(=O)C(C#N)=C(SC)SC What is its recorded growth inhibition?
-14.2

---

Assay: NCI Yeast Anticancer Drug Screen. Data for the sgs1 mgt1 strain (AID 161);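 also: 0% = growth of cultures given vehicle only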
Details: S. cerevisiae sgs1 mgt1 strain, at 50.0 µM, active compounds read high
Compounds without any hit were thinned out: in the full panel of roughly 79,000, 15% have a hit. Active and inactive are the calls of the source. Rule as the data show it: active = growth inhibition above about 70%; inactive = the rest.
Recorded growth inhibition, one value per entry.

Example results:
{"columns": ["molecule", "growth inhibition"],
 "data": [
  ["O=C(O)c1cccc2c1CCCC2", "-21.6% (inactive)"],
  ["CC(C)C(O)C(=O)C(O)C(C)C (stereo not drawn)", "4.5% (inactive)"]
]}

Consider the molecule shown here: CN1C(=O)CC2(C)c3cc(O)ccc3N(C)C12 (stereo not drawn) What is its recorded growth inhibition?
54.5% (inactive)

Consider the molecule shown here: Cc1ccc(C(N)=Nc2ccccc2)cc1 What is its recorded growth inhibition?
-0.3% (inactive)

Consider the molecule shown here: CCCCc1c[nH]c(=O)[nH]c1=O What is its recorded growth inhibition?
-8.4% (inactive)

Consider the molecule shown here: CN(C)Cc1c(-c2ccccc2)c(-c2ccccc2)c2ccccn12 What is its recorded growth inhibition?
14.1% (inactive)

Consider the molecule shown here: CC12CCC(/C(=C/N(O)/C=C3\C(=O)C4(C)CCC3C4(C)C)C1=O)C2(C)C What is its recorded growth inhibition?
-30.1% (inactive)

---

Recorded growth inhibition, one value per entry.
Test: NCI Yeast Anticancer Drug Screen. Data for the bub3 strain (AID 167)
Conditions: S. cerevisiae bub3 mutant strain, at 50.0 µM, active compounds read high
The panel holds about 79,000 compounds, 15% with a hit somewhere; the sample as a whole holds those more often.
Expressed in %, but write only the number.

Example results:
{"columns": ["compound", "observed_value"],
 "data": [
  ["CN1CCCCC1CCN1CCCCC1 (centres undefined)", -17.9],
  ["CC(C)CSC(SCC(C)C)C(O)C(O)C(O)CO (centres undefined)", 10.2],
  ["O=C(/C=C/c1ccccc1)NCC(O)CO (centres undefined)", 0.5],
  ["C[N+](C)(C)C(Cc1ccccc1)Cc1ccccc1", -0.7],
  ["C(=C(c1ccccc1)c1ccccc1)=C(c1ccccc1)c1ccccc1", 4.95],
  ["CC(NC(=O)c1ccccc1)c1ccc[nH]1 (centres undefined)", -25.6],
  ["Cc1cc(C)c(CCl)c(C)c1CCl", 5.75],
  ["COC(=O)c1ccc(/C=C2\\CCc3ccccc3C2=O)cc1", 14.2]
]}

Then there is this compound:
Consider the compound shown here: COc1ccc(-c2cc(=O)c3c(O)cc(O)cc3o2)cc1Oc1ccc(-c2cc(=O)c3c(O)cc(O)cc3o2)cc1 What is its recorded growth inhibition?
-3.7
